assay: Effect of concentration on the stability of the solution (purity over time); details: 8 wt %; in water at 25° C.
measuredMetric: Purity at Day 28 (%)

> print(dat)
                                   compound  resultunit  reportedmeasurement
1    CCN(CC)CCOC(=O)CCc1ccc2cc(OC)ccc2c1.Cl           %                 97.5
2  CCN(CC)CCOC(=O)CC1=C(C)C(=Cc2ccc([S+](C)[O-])cc2)c2ccc(F)cc21.Cl (centres unmarked)           %                 96.5
3  CCN(CC)CCOC(=O)C(C)c1ccc2oc(-c3ccc(Cl)cc3)nc2c1.Cl (centres unmarked)           %                 97.4
4  CCN(CC)CCOC(=O)Cc1c(C)n(C(=O)c2ccc(Cl)cc2)c2ccc(OC)cc12.Cl           %                 97.4
5  CCN(CC)CCOC(=O)Cc1ccc(C(=O)c2ccc(C)cc2)n1C.Cl           %                 96.6
